- SYSTEM_NAME: DVL2, O14641
- Sequence (O14641 260-359): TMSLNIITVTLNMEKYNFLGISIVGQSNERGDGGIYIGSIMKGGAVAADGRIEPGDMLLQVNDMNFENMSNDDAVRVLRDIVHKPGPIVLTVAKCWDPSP
- MEASUREMENT_DESCRIPTION: holdup assay
- Set-up: key: below the threshold = too weak to quantify, mostly under pKd 3.1 to 4
- CONDITION_CONTEXT: plain residues with an end cap or a label only (N-terminal biotin on a linker: ttds)

BINDER: PSRDRKETSI [RALBP1, Q15311]
pKd: below the threshold
//
BINDER: KLVIKTETTV [RASSF6, Q6ZTQ3]
pKd: below the threshold
//
BINDER: SHSSKGETAV [FZD7, O75084]
pKd: below the threshold
